tested target: Amine oxidase [flavin-containing] A (Homo sapiens)
Sequence (P21397 whole entry): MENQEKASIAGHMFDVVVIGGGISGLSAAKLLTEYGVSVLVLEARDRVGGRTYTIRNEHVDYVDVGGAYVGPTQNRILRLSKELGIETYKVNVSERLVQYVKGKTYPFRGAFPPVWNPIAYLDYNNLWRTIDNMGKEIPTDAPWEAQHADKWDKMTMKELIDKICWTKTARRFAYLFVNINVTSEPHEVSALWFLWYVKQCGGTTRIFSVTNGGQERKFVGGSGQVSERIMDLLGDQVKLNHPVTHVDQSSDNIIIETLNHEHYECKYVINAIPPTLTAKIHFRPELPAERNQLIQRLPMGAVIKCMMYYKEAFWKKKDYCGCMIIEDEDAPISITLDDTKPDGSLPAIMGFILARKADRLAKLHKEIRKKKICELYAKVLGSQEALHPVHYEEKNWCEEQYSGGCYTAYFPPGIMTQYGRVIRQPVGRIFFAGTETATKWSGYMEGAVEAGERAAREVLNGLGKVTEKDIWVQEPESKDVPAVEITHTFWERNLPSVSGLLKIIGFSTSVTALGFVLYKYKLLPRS
test method notes: Inhibition of recombinant human MAOA expressed in baculovirus infected BTI insect cells at 1 to 100 uM using p-tyramine as substrate preincubated for 30 mins followed by substrate addition and measured over 45 mins by horseradish peroxidase-Amplex Red-coupled fluorometric assay relative to control
measurement setup: 0.75 h
measured quantity: inhibition (INH) (%)

- structure smiles: "Cn1c(=O)c2c(nc3n2CCCN3Cc2ccccc2F)n(C)c1=O"
  result unit: "%"
  inhibition (INH): -1
- structure smiles: "Cn1c(=O)c2c(nc3n2CCCCN3Cc2ccccc2F)n(C)c1=O"
  result unit: "%"
  inhibition (INH): 14
- structure smiles: "Cn1c(=O)c2c(nc3n2CCN3Cc2cccc(Br)c2)n(C)c1=O"
  result unit: "%"
  inhibition (INH): 11
- structure smiles: "Cc1cccc(CN2CCCn3c2nc2c3c(=O)n(C)c(=O)n2C)c1"
  result unit: "%"
  inhibition (INH): 17
- structure smiles: "Cn1c(=O)c2c(nc3n2CCCN3Cc2ccc(Br)cc2F)n(C)c1=O"
  result unit: "%"
  inhibition (INH): -2
- structure smiles: "Cn1c(=O)c2c(nc3n2CCCCN3Cc2ccccc2Br)n(C)c1=O"
  result unit: "%"
  inhibition (INH): 3
- structure smiles: "COc1ccc(Cl)c(CN2CCCn3c2nc2c3c(=O)n(C)c(=O)n2C)c1F"
  result unit: "%"
  inhibition (INH): 16
- structure smiles: "Cn1c(=O)c2c(nc3n2CCN3Cc2ccc(Cl)cc2)n(C)c1=O"
  result unit: "%"
  inhibition (INH): 16
- structure smiles: "COc1ccccc1CN1CCCCn2c1nc1c2c(=O)n(C)c(=O)n1C"
  result unit: "%"
  inhibition (INH): 2
- structure smiles: "Cn1c(=O)c2c(nc3n2CCCN3Cc2ccccc2Br)n(C)c1=O"
  result unit: "%"
  inhibition (INH): 1

I: COc1ccc(CN2CCCn3c2nc2c3c(=O)n(C)c(=O)n2C)cc1Cl
II: Cn1c(=O)c2c(nc3n2CCN3Cc2ccc(F)c(Br)c2)n(C)c1=O
III: Cn1c(=O)c2c(nc3n2CCCN3Cc2ccc(Cl)cc2F)n(C)c1=O
IV: Cn1c(=O)c2c(nc3n2CCCCN3Cc2ccc(F)c(Br)c2)n(C)c1=O
V: Cn1c(=O)c2c(nc3n2CCN3Cc2ccccc2Br)n(C)c1=O
Order the records, beginning with the lowest inhibition (INH) and ending with the highest. Please list the labels according to the requested order.
IV, III, II, V, I

Recorded values, source ChEMBL document CHEMBL4480426.
